target.or.system: Thymidine phosphorylase (Escherichia coli K-12)
Sequence (P07650 whole entry): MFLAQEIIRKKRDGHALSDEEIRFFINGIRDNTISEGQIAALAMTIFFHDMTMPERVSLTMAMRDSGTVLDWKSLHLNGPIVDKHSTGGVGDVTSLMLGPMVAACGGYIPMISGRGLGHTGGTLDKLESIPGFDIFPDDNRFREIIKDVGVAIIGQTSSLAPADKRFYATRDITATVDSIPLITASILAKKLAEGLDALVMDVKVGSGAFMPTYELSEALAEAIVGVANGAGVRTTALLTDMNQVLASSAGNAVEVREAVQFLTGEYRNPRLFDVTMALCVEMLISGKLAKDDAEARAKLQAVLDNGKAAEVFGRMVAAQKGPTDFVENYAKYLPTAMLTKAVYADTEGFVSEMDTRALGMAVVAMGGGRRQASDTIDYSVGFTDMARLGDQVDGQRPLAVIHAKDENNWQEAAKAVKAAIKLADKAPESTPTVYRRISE
protocol.details: Inhibition of [3H]methylthymidine binding to Escherichia coli thymidine phosphorylase after 10 mins by scintillation counting
measured.property: IC50 (µM)
Just the number in µM, nothing appended.

Provide measured IC50 value, entry: O=c1[nH]c(=O)n(CCCCCCCCP(=O)(O)O)c2[nH]ccc12 11.4

All figures here come from ChEMBL document CHEMBL1641495.
